- Tested on: CEM cells
- RUN DESCRIPTION: Cytotoxicity in CEM cells
- CONDITION INFO: read-out: Cytotoxicity CC50 CEM
MEASURED ATTRIBUTE: CC50 (µM)
State just the number; it will be interpreted in µM.

Which CC50 is listed for O=C(O)CNC(=O)c1ccc(-c2c3nc(c(-c4ccc(C(=O)NCC(=O)O)cc4)c4ccc([nH]4)c(-c4ccc(C(=O)NCC(=O)O)cc4)c4nc(c(-c5ccc(C(=O)NCC(=O)O)cc5)c5ccc2[nH]5)C=C4)C=C3)cc1 ?
27
